Biological target: His-Avi-TEV-mSTING (138-341) mouse wild-type protein (Mus musculus, UniProt Q3TBT3)
Construct: made in house; host or cells: E. coli Rosetta 2 (DE3), co-expressed with BirA (1-321)
Sequence (Q3TBT3 with tags, fused parts or gaps limits assumed): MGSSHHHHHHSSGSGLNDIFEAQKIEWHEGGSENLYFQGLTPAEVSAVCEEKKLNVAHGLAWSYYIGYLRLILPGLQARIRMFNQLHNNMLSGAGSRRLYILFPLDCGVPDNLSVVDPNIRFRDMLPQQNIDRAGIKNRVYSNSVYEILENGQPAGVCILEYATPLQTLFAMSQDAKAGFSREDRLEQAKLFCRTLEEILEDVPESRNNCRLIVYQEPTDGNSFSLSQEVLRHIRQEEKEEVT
Assay: Protein thermal shift assay, STING C-terminal binding domain protein
Details: test compound final concentration 0.5 mM
MEASURE: ΔTm at 500 µM (°C)
Response body: numeric value in °C, unit text excluded.

1) Nc1nc(CO)nc2c1ncn2[C@@H]1O[C@@H]2COP(=O)(S)O[C@H]3[C@@H](O)[C@H](n4cc5c6c(ncnc64)NCCC5)O[C@@H]3COP(=O)(S)O[C@@H]1[C@@H]2O (single isomer, unassigned) [12a]    11.9
2) Nc1nc2c(ncn2[C@@H]2O[C@@H]3COP(=O)(S)O[C@H]4[C@@H](O)[C@H](n5cc6c7c(ncnc75)NCCC6)O[C@@H]4COP(=O)(S)O[C@@H]2[C@@H]3O)c(=O)[nH]1 (single isomer, unassigned) [4a]    17.5
3) O=c1c2ncn([C@@H]3O[C@@H]4COP(=O)(S)O[C@H]5[C@@H](F)[C@H](n6cc7c8c(ncnc86)NCCC7)O[C@@H]5COP(=O)(S)O[C@@H]3[C@@H]4O)c2ncn1CCO (single isomer, unassigned) [34a]    20.3

Lab note: next compound to report on.
# ΔTm at 500 µM of NCCNc1nc(N)c2ncn([C@@H]3O[C@@H]4COP(=O)(S)O[C@H]5[C@@H](F)[C@H](n6cc7c8c(ncnc86)NCCC7)O[C@@H]5COP(=O)(S)O[C@@H]3[C@@H]4F)c2n1 (single isomer, unassigned) [45a] = 12.3

Data provenance: patent US12370263B2
